These data points were gathered from patent US4666931A.

- assay explanation: Acute toxicity test in mice (oral)
- experimental conditions: mouse, in vivo, po
Give LD50 at 336 h for every item shown.

Which LD50 at 336 h is listed for CCc1oc2ccc([N+](=O)[O-])cc2c1S(=O)(=O)NCC(=O)O [Compound 21] ? > 3000 mg/kg

Reported LD50 at 336 h, compound CCCCCOc1ccc(S(=O)(=O)NCC(=O)O)c2cc(C(C)=O)oc12 [Compound 5] : ____ > 3000 mg/kg

Any idea what its LD50 at 336 h is? The compound is CC(=O)COc1ccc(S(=O)(=O)NCC(=O)O)c2cc(C(C)=O)oc12 [Compound 26] > 2000 mg/kg

Reported LD50 at 336 h for CC(=O)c1cc2c(S(=O)(=O)NCC(=O)O)ccc(OCc3ccc([N+](=O)[O-])cc3)c2o1 [Compound 23] : what is it? > 2000 mg/kg
